Source of measurements: paper PMC5540273

Test system: ERN1;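 note: KINOMEscan kinase panel screen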
Details: concentration: 1 μM, replicates: in singlicate; n = 1
Can you tell me %Inh for the items I'm about to list?
Numbers only; they are read as %.

The molecule COc1ccc(NC(=O)Nc2ccc(C)c(-c3ccc(C(=O)Nc4ccncc4)cc3)c2)cc1 on ERN1: %Inh was 0

The molecule CS(=O)(=O)CCNCc1ccc(-c2ccc3ncnc(Nc4ccc(OCc5ccccc5)c(Cl)c4)c3c2)o1.Cl on ERN1: %Inh was 0

The molecule O=C(c1ccc(-c2cc(-c3c[nH]nc3-c3ccccn3)ccn2)cc1)N1CCCC1 on ERN1: %Inh was 0

The molecule O=C(NCCCN1CCCC1=O)c1cnc(NCc2cc(Cl)ccc2Cl)nc1NC1CCNCC1 on ERN1: %Inh was 0

The molecule CCC(CC)(CC)n1cnc2c(N)ncnc21 on ERN1: %Inh was 26

The molecule COC(=O)c1cccc(NC(=O)NCCNc2ccnc(Nc3ccc(F)cc3)n2)c1 on ERN1: %Inh was 21

The molecule CC(=O)Nc1n[nH]c2ncc(-c3ccccc3)cc12 on ERN1: %Inh was 0

The molecule Fc1ccc(-c2ncn(CCCNCc3ccccc3)c2-c2ccncc2)cc1 on ERN1: %Inh was 14

The molecule COc1ccc(NC(=O)c2ccc(-c3cc(-c4nnc(C)o4)ccc3C)cc2)cc1 on ERN1: %Inh was 0

The molecule Fc1cccc(COc2ccc(Nc3ncnc4nn5ccccc5c34)cc2Cl)c1 on ERN1: %Inh was 0

The molecule Clc1cc(Nc2ncnc3cc[nH]c23)ccc1OCc1ccccn1 on ERN1: %Inh was 47

The molecule N#Cc1ccc(Oc2ccc(Nc3ncnc4cc[nH]c34)cc2Cl)cc1 on ERN1: %Inh was 8

The molecule Cc1cc(N2CCC(NS(=O)(=O)c3ccc(F)cc3)CC2)nc(Nc2cccc(C#N)c2)n1.O=C(O)C(F)(F)F on ERN1: %Inh was 0

The molecule Cc1ccc(C)c(NC(=O)NCCNc2ccnc(Nc3ccc(F)cc3)n2)c1 on ERN1: %Inh was 0

The molecule COc1cc2ncnc(Nc3ccc(OCc4ccccc4Br)c(Cl)c3)c2cc1OC.Cl on ERN1: %Inh was 0

The molecule CCCc1ccc(S(=O)(=O)NC2CCN(c3ccnc(Nc4ccc(OC)cc4)n3)C2)cc1 (stereo not drawn) on ERN1: %Inh was 0

The molecule CC(C)(C)OC(=O)NC1CCCN(c2cc(-c3ccc4c(N)n[nH]c4c3)nc(N)n2)C1 (stereo not drawn) on ERN1: %Inh was 7

The molecule Cn1cc(-c2ccc3c(c2)CCN3C(=O)Cc2cccc(C(F)(F)F)c2)c2c(N)ncnc21 on ERN1: %Inh was 21
